Tested on: barnyardgrass (Echinochloa crus-galli)
Assay Summary: Test A postemergence
Assay type: in vivo
Run Parameters: Echinochloa crus-galli, post-emergence, 240 h, Postemergence, 31 g ai/ha; visual injury after approx. 10 d; 0 to 100 scale, 0 no effect, 100 complete control; read-out: Plant response rating, Barnyardgrass
# pest or weed control at 31 g/ha values compiled below
Reported Property: pest or weed control at 31 g/ha (%)

• CN1CC[C@H](c2ccc3c(c2)OC(F)(F)O3)[C@@H](C(=O)Nc2ccccc2C(F)(F)F)C1=O = 0
• CN1C[C@H](c2cccc(C(F)(F)F)c2)[C@@H](C(=O)Nc2ccccc2CCO)C1=O (racemic) = 30
• CN1C[C@H](c2ccc(C(F)(F)F)c(Br)c2)[C@@H](C(=O)Nc2cccc(F)c2F)C1=O = 20
• CN1C[C@H](c2csc3c2CCCC3)[C@@H](C(=O)Nc2ccccc2S(C)(=O)=O)C1=O = 0
• CN1CC[C@H](c2ccc3c(c2)OC(F)(F)O3)[C@@H](C(=O)Nc2ccc(F)c(F)c2F)C1=O = 40
• CSc1ccccc1NC(=O)[C@H]1C(=O)N(C)CC[C@@H]1c1cccc(OC(F)(F)F)c1 = 0
• CN1CC(c2cccc(C(F)(F)F)c2)C(C(=O)Nc2ccccc2C(C)(C)O)C1=O (stereo not shown) = 0

* * *

System: blackgrass (Alopecurus myosuroides)
Assay Summary: Test A postemergence
Type: in vivo
Run Parameters: 125 g ai/ha, postemergence; visual injury rating on 0 to 100 scale (0 no effect, 100 complete control), approx. 10 d
# Blackgrass plant response rating values compiled below
Reported Property: Blackgrass plant response rating

- O=C1NCC(c2cccc(C#Cc3ccccc3)c2)C1C(=O)Nc1cccc(F)c1F (centres unmarked): 0
- O=C1NCC(c2cccc(OC(F)F)c2)C1C(=O)Nc1ccccc1OC(F)F (centres unmarked): 20
- CN1CC(c2ccc(C(F)(F)F)cc2F)C(C(=O)Nc2cccc(F)c2F)C1=O (centres unmarked): 30
- Cc1ccc(C2CNC(=O)C2C(=O)Nc2ccc(F)cc2F)c(F)c1 (racemic): 0
- CC(C)c1ccc(C2CNC(=O)C2C(=O)Nc2ccccc2F)cc1 (centres unmarked): 0
- CC(=O)N1CC(c2cccc(C(F)(F)F)c2)C(C(=O)Nc2ccccc2F)C1=O (centres unmarked): 30
- CN1CC(c2cccc(OC(F)(F)C(F)F)c2)C(C(=O)Nc2ccccc2F)C1=O (centres unmarked): 50
- CC(=O)Oc1cccc(C2CNC(=O)C2C(=O)Nc2cccc(F)c2F)c1 (centres unmarked): 0

* * *

Tested on: giant foxtail (Setaria faberii)
Assay Summary: Test A postemergence
Assay type: in vivo
Run Parameters: 125 g ai/ha, postemergence; visual rating after approx. 10 d, 0 to 100 scale (0 no effect, 100 complete control)
Reported Property: Plant response rating, Foxtail, Giant

- CN1CC(c2cccc(C(F)(F)F)c2)C(C(=O)Nc2ccccc2C(F)(F)F)C1=O (centres unmarked) [Compound 638]: 90
- CN1CC(c2cccc(OC(F)F)c2)C(C(=O)Nc2cccc(F)c2F)C1=O (centres unmarked) [Compound 616]: 90
- O=C1NCC(c2cccc(C(F)(F)F)c2)C1C(=O)Nc1ccc(F)cc1Cl (racemic) [Compound 676]: 20
- O=C1NCC(c2cc(C(F)(F)F)ccc2F)C1C(=O)Nc1ccccc1F (centres unmarked) [Compound 593]: 90
- O=C1NCC(c2cc(F)ccc2F)C1C(=O)Nc1ccc(F)cc1F (racemic) [Compound 545]: 0
- C=CCOc1cccc(C2CNC(=O)C2(CC=C)C(=O)Nc2cccc(F)c2F)c1 (centres unmarked) [Compound 631]: 0
- CN1CC(c2cc(F)cc(F)c2)C(C(=O)Nc2ccc(F)c(F)c2F)C1=O (centres unmarked) [Compound 646]: 90
- CN1CC(c2cccc(C(F)(F)F)c2)C(C(=O)Nc2ccc(F)cc2F)C1=O (centres unmarked) [Compound 571]: 90
- CN1CC(c2ccc(F)c(C(F)(F)F)c2)C(C(=O)Nc2ccccc2F)C1=O (centres unmarked) [Compound 611]: 90
- CN1CC(c2ccc(F)c(F)c2)C(C(=O)Nc2ccccc2C(F)(F)F)C1=O (centres unmarked) [Compound 641]: 90
- O=C1NCC(c2cccc(C(F)(F)F)c2F)C1C(=O)Nc1ccccc1F (centres unmarked) [Compound 590]: 90
- O=C1NCC(c2cc(F)ccc2F)C1C(=O)Nc1cccc(F)c1F (racemic) [Compound 546]: 70
- Cc1cc(C2CNC(=O)C2C(=O)Nc2cccc(F)c2F)cs1 (racemic) [Compound 656]: 20
- CN1CC(c2ccc(Br)cc2)C(C(=O)Nc2ccc(F)cc2F)C1=O (centres unmarked) [Compound 566]: 90

Each recorded value in this set is attributed to patent US12077503B2.
